- Test system: H1975
- Assay Summary: Cell antiproliferative assay (CTG, 72 h)
- Format: cell-based
- Test Conditions: Homo sapiens, NCI-H1975, H1975 (EGFR T790M/L858R)
pIC50: −log10 of the molar value.
The molecules listed here are annotated with their pIC50.

Here is how some molecules turned out for pIC50.
[[record]]
molecule = "CCc1cc(Nc2ncc(Cl)c(Nc3ccccc3C(=O)NC)n2)c(OC)cc1N1CCN(C(=O)CN2CCN(c3ccc(NC4CCC(=O)NC4=O)cc3F)CC2)CC1 (centres unmarked)"
data_value = "7.00 to 8.00"

[[record]]
molecule = "COc1cc(N2CCN(C(=O)CN3CCC(c4ccc(NC5CCC(=O)NC5=O)cc4)CC3)CC2)ccc1Nc1ncc(Cl)c(Nc2ccccc2-n2ccnn2)n1 (centres unmarked)"
data_value = "7.00 to 8.00"

[[record]]
molecule = "CCc1cc(Nc2ncc(Cl)c(Nc3ccccc3C(=O)NC)n2)c(OC)cc1N1CCN(C(=O)CN2CCC(c3ccc4c(N5CCC(=O)NC5=O)nn(C)c4c3)CC2)CC1"
data_value = "> 8.00"


Per the record, `CNC(=O)c1ccccc1Nc1nc(Nc2cc(C)c(N3CCN(C(=O)CC4(O)CCN(c5ccc6c(N7CCC(=O)NC7=O)nn(C)c6c5)CC4)CC3)cc2OC)ncc1Cl` has pIC50 of 6.00 to 7.00

Per the record, CCc1cc(Nc2ncc(Cl)c(Nc3ccccc3C(=O)NC)n2)c(OC)cc1N1CC2CCC(C1)N2C(=O)CN1CCC(c2ccc(NC3CCC(=O)NC3=O)cc2)CC1 (centres unmarked) has pIC50 of 7.00 to 8.00

Per the record, CCc1cc(Nc2ncc(Cl)c(Nc3ccccc3C(=O)NC)n2)c(OC)cc1N1CCN(CCN2CCC(c3ccc(NC4CCC(=O)NC4=O)cc3)CC2)CC1 (centres unmarked) has pIC50 of > 8.00

Per the record, CNC(=O)c1ccccc1Nc1nc(Nc2cc(C)c(N3CCN(C(=O)CN4CCC(c5ccc6c(N7CCC(=O)NC7=O)nn(C)c6c5)C(F)(F)C4)CC3)cc2OC)ncc1Cl (centres unmarked) has pIC50 of > 8.00

Per the record, `CCc1cc(Nc2ncc(Cl)c(Nc3ccccc3C(=O)NC)n2)c(OC)cc1N1CCN(C(=O)CN2CCN(c3ccc4c(N5CCC(=O)NC5=O)nn(C)c4c3)CC2)CC1` has pIC50 of 6.00 to 7.00
